# target_or_system: NADPH oxidase 2 (Homo sapiens) (UniProt P04839)
# Sequence (P04839 whole entry): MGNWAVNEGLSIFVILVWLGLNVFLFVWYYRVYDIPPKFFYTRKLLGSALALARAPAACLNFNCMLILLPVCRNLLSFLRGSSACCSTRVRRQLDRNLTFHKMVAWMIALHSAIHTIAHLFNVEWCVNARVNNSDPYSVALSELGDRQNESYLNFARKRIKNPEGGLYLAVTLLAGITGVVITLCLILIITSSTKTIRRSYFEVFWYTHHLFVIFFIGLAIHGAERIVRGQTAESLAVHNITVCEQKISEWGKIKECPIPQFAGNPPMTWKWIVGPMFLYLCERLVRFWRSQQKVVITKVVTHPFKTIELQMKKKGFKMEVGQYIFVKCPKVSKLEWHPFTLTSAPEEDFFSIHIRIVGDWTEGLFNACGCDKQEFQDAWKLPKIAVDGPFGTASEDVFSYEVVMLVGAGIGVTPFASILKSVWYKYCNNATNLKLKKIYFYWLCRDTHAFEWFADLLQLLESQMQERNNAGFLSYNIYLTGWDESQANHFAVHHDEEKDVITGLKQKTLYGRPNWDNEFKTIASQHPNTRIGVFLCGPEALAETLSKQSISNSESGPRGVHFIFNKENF
# protocol_details: Inhibition of NOX2 in human THP1 cells assessed as suppression of TPA-induced cell adhesion at 20 uM incubated for 1 hr prior to TPA challenge measured after 24 hrs by microscopic analysis
# Type: cell-based
# measurement_context: THP-1
Active and inactive are the calls of the source. The rule behind the calls is not given here.
Choose the fitting class; nothing outside Y for active, N for inactive is accepted.

{"columns": ["smiles_input", "class_assignment"],
 "data": [
  ["O=c1cc(-c2ccccc2)oc2cc(O)cc(O)c12", "Y"],
  ["O=c1cc(-c2ccc(O)c(O)c2)oc2cc(O)cc(O)c12", "Y"],
  ["O=c1cc(-c2cc(O)c(O)c(O)c2)oc2cc(O)cc(O)c12", "N"]
]}

Continue with the compound presented below.
Task item: Recorded call for "O=c1cc(-c2ccc(O)cc2)oc2cc(O)cc(O)c12" ?
Reply: Y
